The compounds listed here are annotated with their RP-LC retention time.
Test: gradient 5% acetonitrile 3 min, to 50% in 2 min, to 85% in 15 min, held 3 min, 100 µL/min
Settings: column: Zorbax Extend-C18 2.1 x 50 mm; eluents: water / acetonitrile, 0.1% formic acid
observed.property: RP-LC retention time (s)

> print(dat)
                                   compound  value.observed
1  CCC(C)NC(=O)c1c2c(cn(-c3ccccc3)c1=O)C(=O)CC(C)(C)C2 (centres undefined)             942
2  CCOC(=O)c1c(C)oc2nc(C)nc(N3CCN(c4ccc(OC)cc4)CC3)c12             979
3  Cc1nc(-c2ccc(NC(=O)N3CCCc4ccccc43)cc2)no1             900
4  CN(C)CC1(O)CCC2(CCN(Cc3ccc(Cl)c(F)c3)CC2)CC1             658
5  CCOC(=O)c1c(N)n(-c2ccccc2)c2nc3ccccc3nc12             683
6  Fc1ccc(CN2CCc3nc(N4CCN(c5ccccc5F)CC4)ncc3C2)c(F)c1             795
7  Cc1nc2cc3c(cc2n1CC(=O)NCc1ccccc1Cl)OCCO3             645
8  COc1cc(NC(=O)N2CCC(n3cnc4cccnc43)CC2)cc(OC)c1             638
9  O=C(Nc1ccc(F)cc1)N1CC2CN(S(=O)(=O)c3ccccc3)CC(C1)O2             752
